- Tested on: K4 kissing-loop RNA reporter;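 note: bound reporter read as fluorescence of individual clusters on recovered sequencing chips by microscopy, with normalized cluster intensities fitted with a binding model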
- assay info: apparent KD of K4 kissing-loop reporter; higher = weaker reporter binding
- conditions: Eterna round: R107; input ligand: none
Threshold rule: apparent KD of K4 kissing-loop reporter greater than or equal to 200 nM is 1 (yes); below that, 0 (no).

Completed entries (count: 3):
seq_string=UUCUAGCCGAAAGGCUAGUCGGCUUCAGAUACCAGUCGCGAAAGCGACCCUUGGCAGCUGUGUAGUGAUGUUGCAAAGAAAGCCG label="1 (yes)"
seq_string="UGACGUAAAACCGUCGAAUCGCUGUGAGAAGGAGCGGUAAAAUUGCCAGGUAGGUCGCUCACAGCCUCACAGUGAUGUUGUGGGA [Sovetequ]" label="1 (yes)"
seq_string="UGGACGAUAUACGAUAAGUAUAUCUGGGAUACCAGUGACGAAAGUCACCCUUGGCAGCUCAACUGCCAGUGAUGUUGGUAGUCCA [#17 K4 Theophylline A Same State]" label="0 (no)"

Is apparent KD of K4 kissing-loop reporter at least 200 nM? Consider GGUCUGCCGCAGUGAUGUUGCUGGCAUACACGAGGACCGGUACGGCCGCCACUCGAUGCUCCAAGAACCACCAAUCUUCGGUAUC [theeternabot_sameState_KL_Trp_A_48] 1 (yes)

Is apparent KD of K4 kissing-loop reporter at least 200 nM? Consider UGACUGGACUGAAGGAGCGCGCGAGACAAAGUCUCGAACUUCUAGUGAUGUUAGAAAAUAACGCAGGUAGGUCGCAGUCUAGUCU 0 (no)
